Target: T1, human alpha CGRP (SEQ ID NO: 80) (human, not fully specified)
T1 construct: also called human αCGRP; hαCGRP
T1 peptide: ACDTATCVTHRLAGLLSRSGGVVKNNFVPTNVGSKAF
Test: SPR, 37 C, mutein captured, CGRP analyte
Exercise: state measured koff for each of the binders provided.
Your answer is read as s⁻¹, so omit the unit and give the number.

### Prompt Give koff for the following binder: lipocalin mutein SEQ ID NO: 4 (designed binder, biotinylated by NHS chemistry for capture in SPR) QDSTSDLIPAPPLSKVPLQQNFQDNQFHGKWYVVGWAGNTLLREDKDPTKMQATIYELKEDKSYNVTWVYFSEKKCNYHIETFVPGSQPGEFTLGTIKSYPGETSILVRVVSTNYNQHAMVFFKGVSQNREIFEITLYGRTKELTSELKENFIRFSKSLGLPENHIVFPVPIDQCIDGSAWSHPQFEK
### Response 0.00302

### Prompt Give koff for the following binder: lipocalin mutein SEQ ID NO: 26 (designed binder, biotinylated by NHS chemistry for capture in SPR) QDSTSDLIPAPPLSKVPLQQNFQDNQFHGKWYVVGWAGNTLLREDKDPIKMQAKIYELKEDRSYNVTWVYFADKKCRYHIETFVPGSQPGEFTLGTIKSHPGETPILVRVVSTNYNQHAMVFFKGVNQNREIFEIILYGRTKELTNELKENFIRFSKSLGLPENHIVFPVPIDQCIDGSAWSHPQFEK
### Response 1.99e-05

### Prompt Output koff of lipocalin mutein SEQ ID NO: 24 (designed binder, biotinylated by NHS chemistry for capture in SPR) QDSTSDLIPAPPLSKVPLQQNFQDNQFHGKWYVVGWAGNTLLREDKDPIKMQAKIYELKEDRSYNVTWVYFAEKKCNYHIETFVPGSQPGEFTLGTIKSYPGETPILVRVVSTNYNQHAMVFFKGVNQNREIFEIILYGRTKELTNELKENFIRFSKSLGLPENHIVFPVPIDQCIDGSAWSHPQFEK
### Response 1.4e-05

### Prompt Given the binder lipocalin mutein SEQ ID NO: 16 (designed binder, biotinylated by NHS chemistry for capture in SPR) QDSTSDLIPAPPLSKVPLQQNFQDNQFHGKWYVVGRAGNDELREDKDPEKMEATIYELKEDKSYNVTDVGFVQKKCMYVIHTFVPGSQPGEFTLGNIKSYPGVTSGLVRVVSTNYNQHAMVFFKVVRQNRELFEITLYGRTKELTSELKENFIRFSKSLGLPENHIVFPVPIDQCIDGSAWSHPQFEK , write its reported koff.
### Response 0.000259

### Prompt Give reported koff value for lipocalin mutein SEQ ID NO: 9 (designed binder, biotinylated by NHS chemistry for capture in SPR) QDSTSDLIPAPPLSKVPLQQNFQDNQFHGKWYVVGWAGNTLLREDKDPIKMQATIYELKEDKSYDVTWVYLSEKKCNYHIETSVPGSQPGEFTLGTIKSYPGETSILVRVVSTNYNQHAMVFFKGMSQNREIFEITLYGRTKELASELKENFIRFSKSLGLPENHIVFPVPIDQCIDGSAWSHPQFEK
### Response 0.000257

### Prompt # return recorded koff for entry lipocalin mutein SEQ ID NO: 10 (designed binder, biotinylated by NHS chemistry for capture in SPR) QDSTSDLIPAPPLSKVPLQQNFQDNQFHGKWYVVGWAGNTLLREDKNPTKMQATIYELKEDKSYNATWVYLSEKKCNYHIETSVPGSQPGEFTLGTTKSYPGETPILVRVVSTNYNQHAMVFFKGVSQNREIFEITLYGRTKELTSELKENFIRFSKSLGLPENHIVFPVPIDQCIDGSAWSHPQFEK
### Response 0.000205

### Prompt // fetch koff given entry lipocalin mutein SEQ ID NO: 23 (designed binder, biotinylated by NHS chemistry for capture in SPR) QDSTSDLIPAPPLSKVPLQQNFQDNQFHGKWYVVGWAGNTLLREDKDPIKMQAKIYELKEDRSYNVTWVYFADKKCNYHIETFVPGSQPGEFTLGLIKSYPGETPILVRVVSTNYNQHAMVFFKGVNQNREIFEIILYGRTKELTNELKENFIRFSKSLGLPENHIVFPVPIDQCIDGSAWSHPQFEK
### Response 1.84e-05
